Entry source: patent US20240116882A1

# target system: human recombinant ENPP1 enzymes (Homo sapiens, UniProt P22413)
# Sequence (P22413 whole entry): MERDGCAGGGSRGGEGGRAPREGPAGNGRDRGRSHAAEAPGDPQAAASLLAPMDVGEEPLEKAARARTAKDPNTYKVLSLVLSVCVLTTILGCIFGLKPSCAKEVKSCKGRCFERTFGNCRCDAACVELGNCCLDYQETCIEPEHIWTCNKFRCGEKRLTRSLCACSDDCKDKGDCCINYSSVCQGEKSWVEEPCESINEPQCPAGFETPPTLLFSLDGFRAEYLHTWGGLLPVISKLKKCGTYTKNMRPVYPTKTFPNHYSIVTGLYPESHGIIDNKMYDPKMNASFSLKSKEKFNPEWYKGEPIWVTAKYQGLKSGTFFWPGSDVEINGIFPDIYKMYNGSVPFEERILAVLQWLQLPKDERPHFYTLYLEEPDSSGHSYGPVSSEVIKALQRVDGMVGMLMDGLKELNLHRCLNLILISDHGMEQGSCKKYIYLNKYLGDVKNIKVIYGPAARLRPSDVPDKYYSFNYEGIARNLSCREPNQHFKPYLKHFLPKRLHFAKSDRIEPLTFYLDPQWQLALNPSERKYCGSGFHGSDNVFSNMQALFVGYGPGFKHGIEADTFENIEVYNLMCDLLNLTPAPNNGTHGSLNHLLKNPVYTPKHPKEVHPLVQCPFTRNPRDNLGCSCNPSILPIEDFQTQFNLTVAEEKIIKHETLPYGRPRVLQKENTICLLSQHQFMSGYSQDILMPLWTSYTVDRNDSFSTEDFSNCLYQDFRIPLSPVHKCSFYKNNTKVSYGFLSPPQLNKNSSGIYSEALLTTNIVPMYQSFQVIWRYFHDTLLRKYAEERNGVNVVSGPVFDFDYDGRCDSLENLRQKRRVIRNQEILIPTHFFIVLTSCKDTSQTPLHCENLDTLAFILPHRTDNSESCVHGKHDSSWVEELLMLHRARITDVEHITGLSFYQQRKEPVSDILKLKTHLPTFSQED
# assay explanation: ENPP1 Enzyme Assay with cGAMP Substrate (AMP-Glo)
# applied conditions: human recombinant ENPP1, cGAMP 5 μM, 37° C. 90 minutes, AMP-Glo luminescence; read-out: Enzymatic activity (IC50)
Counter-ions that a name gives are not always drawn.
Below: a set of entries, each annotated with reported IC50.

INSERT INTO results (compound, measurement_name, value_measured) VALUES
  ('COc1ccc2c(c1)nnn2-c1ccc(CNC2CC2)cc1 [Example 13, Hydrochloride]', 'IC50', '> 10 µM');

Hey, human recombinant ENPP1 enzymes (Homo sapiens, UniProt P22413) data for COc1ccc2c(ccn2-c2ccc(CNS(N)(=O)=O)cc2)c1 [Example 122] : IC50 came out at > 10 µM

Considering COc1ccc2c(c1)nnn2-c1ccc(CNS(N)(=O)=O)cc1C [Example 66] , its IC50 with human recombinant ENPP1 enzymes (Homo sapiens, UniProt P22413) was recorded as < 1 µM

# NS(=O)(=O)NCc1ccc(-n2nnc3cc(OC(F)F)ccc32)c(F)c1 [Example 91] with human recombinant ENPP1 enzymes (Homo sapiens, UniProt P22413): IC50 is < 1 µM

The reported IC50 value, human recombinant ENPP1 enzymes (Homo sapiens, UniProt P22413), for COc1ccc2c(c1)nnn2-c1ccc2c(c1)CNCCC2 [Example 27, Hydrochloride] reads > 10 µM

Item COc1ccc2c(c1)nnn2-c1ccc(CNS(N)(=O)=O)cc1 [Example 51, Hydrochloride] ; assay system human recombinant ENPP1 enzymes (Homo sapiens, UniProt P22413); IC50 reported as < 1 µM

Item: NS(=O)(=O)NCc1ccc(-n2nnc3ccccc32)cc1 [Example 46] | System: human recombinant ENPP1 enzymes (Homo sapiens, UniProt P22413) | IC50: 1 to 10 µM

The value of IC50 recorded for COc1ccc2c(c1)nnn2C1CCC(CNS(N)(=O)=O)CC1 (stereo not shown) [Example 43] when tested on human recombinant ENPP1 enzymes (Homo sapiens, UniProt P22413) reads < 1 µM

The reported IC50 value, human recombinant ENPP1 enzymes (Homo sapiens, UniProt P22413), for COc1ccc2c(c1)nnn2-c1ccc(NS(N)(=O)=O)cc1 [Example 48, Hydrochloride] reads < 1 µM
